Test system: kochia
Assay: Test E preemergence
Type: in vivo, Kochia scoparia
Settings: 62 g ai/ha, scale 0 to 100 (0 no effect, 100 complete control)
Each entry below lists one item and its recorded Kochia plant response rating value.

Simply: Clc1cnc(Oc2ccccc2-n2cc(Br)cn2)nc1 , kochia, Kochia plant response rating = 50

Simply: N#Cc1cnn(-c2c(C#N)cccc2Oc2ncc(F)cn2)c1 , kochia, Kochia plant response rating = 95

Simply: FCc1cccc(Oc2ncc(Cl)cn2)c1-n1cc(Cl)cn1 , kochia, Kochia plant response rating = 0

Simply: N#Cc1cnn(-c2c(CF)cccc2Oc2ncc(F)cn2)c1 , kochia, Kochia plant response rating = 90

Simply: CCOc1cnn(-c2c(C#N)cccc2Oc2ncc(F)cn2)c1 , kochia, Kochia plant response rating = 75

Simply: FC(F)(F)COc1cnn(-c2ccccc2Oc2ncc(Cl)cn2)c1 , kochia, Kochia plant response rating = 90

Next up:
Simply: N#Cc1cccc(Oc2ncc(F)cn2)c1-n1cc(Cl)cn1 , kochia, Kochia plant response rating = 98
